# assay-notes: sensitizers of A549 cells to miR-34 induction, primary screen, imaging, A549 dox-inducible miR-34, nuclei and caspase counts (AID 1347080)
# experimental-setup: A549 miR-34 inducible, Hoechst nuclei count, 48 h; measured here: relative caspase fold change +Dox/-Dox
One threshold, 0.9, splits the recorded fold change values: lower ones are TRUE, equal or higher ones are FALSE.

Here are 3 compounds together with their reported answers.
## Task Is fold change strictly under 0.9 for the entry N#CC(OC1OC(COC2OC(CO)C(O)C(O)C2O)C(O)C(O)C1O)c1ccccc1 (stereo not drawn) ?
## Result FALSE

## Task # TODO verify fold change < 0.9 strictly for this compound: CCCCCCC(=O)O[C@H]1CC[C@H]2[C@@H]3CC(=O)C4=CC(=O)CC[C@]4(C)[C@H]3CC[C@]12C
## Result TRUE

## Task Lab log: compare recorded fold change with 0.9; is it strictly lower for NC(=O)COc1c(F)cc(SCCNS(=O)(=O)c2ccccc2)cc1F ?
## Result TRUE

***
## Task Quick check: does CC(N)C(=O)OC(C)(C)Cc1ccc(Cl)cc1 (stereo not drawn) have fold change under 0.9?
## Result FALSE

## Task Item CCCCCCC(C)(C)c1ccc([C@@H]2C[C@H](O)CC[C@H]2CCCO)c(O)c1 : fold change beneath 0.9, strictly?
## Result FALSE

## Task For O=[N+]([O-])C=Cc1ccc2c(c1)OCO2 , is the recorded fold change below the cut-off of 0.9?
## Result TRUE

## Task Determine if Cc1ccc(-c2nc3ccc(C)cn3c2CC(=O)N(C)C)cc1 shows fold change strictly lower than 0.9.
## Result FALSE

----------
# key: entry, value: parasite load remaining
# assay-notes: liver-stage malaria parasite growth inhibition, primary screen, cell-based, HepG2, luciferase luminescence, HepG2 viability (AID 624349);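 further: 100% = mean of DMSO negative control wells on the same plate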
# experimental-setup: P. berghei liver stage in HepG2, luciferase luminescence, concentration not given here; stronger effect = lower value
Active and inactive are the calls of the source. Rule as the data show it: active = parasite load remaining mostly below about 12% (no sharp cut-off); inactive = mostly above about 10%.

## Task Requested read-out: parasite load remaining. Entry: COc1cc(C(=O)OC2C[C@H]3CC[C@@H](C2)N3C)ccc1O (some centres undefined)
## Result 90.6% (inactive)

***
## Task What does the data say about its parasite load remaining? Entry: O=C1Nc2ccc3ncsc3c2/C1=C/c1cnc[nH]1
## Result 86.4% (inactive)

## Task Reported parasite load remaining, compound CCOC(=O)C1(c2ccccc2)CCN(CCC(C#N)(c2ccccc2)c2ccccc2)CC1 : ____
## Result 6.85% (inactive)

## Task What does the data say about its parasite load remaining? Entry: CO[C@H](C)C(O)(C(=O)OCC1=CCN2CC[C@H](O)[C@@H]12)C(C)C (some centres undefined)
## Result 69.7% (inactive)

## Task Reported parasite load remaining for NCCc1ccccn1 : what is it?
## Result 52.1% (inactive)

## Task I'd like to know its parasite load remaining. The compound in question is O=C(NCNC(=O)NC1C(=O)NC(=O)N1CO)NC1C(=O)NC(=O)N1CO (centres undefined)
## Result 92.1% (inactive)

## Task Looking for the measured parasite load remaining of Clc1ccc(CON=C(Cn2ccnc2)c2ccc(Cl)cc2Cl)c(Cl)c1 , can you help?
## Result 2.5% (inactive)

## Task I would be grateful if you could share the reported parasite load remaining for CC(C)C[C@H]1C(=O)N2CCC[C@H]2[C@]2(O)O[C@](NC(=O)[C@@H]3C=C4c5cccc6[nH]cc(c56)C[C@H]4N(C)C3)(C(C)C)C(=O)N12 .
## Result 59.7% (inactive)

## Task // lookup parasite load remaining for CC(=O)O[C@H]1CC[C@@]2(C)C(=CCC3C2CC[C@]2(C)C(=O)CCC32)C1 (some centres undefined)
## Result 162% (inactive)

## Task Reported parasite load remaining, compound CC1CC[C@]2(NC1)O[C@H]1C[C@H]3[C@@H]4CC[C@H]5C[C@@H](O)CC[C@]5(C)[C@H]4CC[C@]3(C)[C@H]1[C@@H]2C (some centres undefined) : ____
## Result 77.7% (inactive)

## Task Record request: parasite load remaining value, item CC[C@H]1CN2CCC1C[C@@H]2[C@@H](O)c1ccnc2ccc(OC)cc12 (some centres undefined)
## Result 20% (inactive)

## Task Requested field: parasite load remaining. Item: CCC(=O)O[C@H]1CCC2C3CCC4=CC(=O)CC[C@]4(C)C3CC[C@@]21C (some centres undefined)
## Result 54.4% (inactive)

## Task // returns reported parasite load remaining for input C[C@H]1O[C@H](OC2[C@@H](O)[C@@H](O)C(O)[C@H](O)[C@H]2O)[C@@H](N)C[C@@H]1N=C(N)C(=O)O (some centres undefined)
## Result 61.4% (inactive)

## Task Please give the measured parasite load remaining for this compound: O=C(O)CCCO
## Result 64.2% (inactive)

## Task Returns the measured parasite load remaining for the input compound. Input: CC(C)NCC(O)c1ccc(N)c(C#N)c1 (centres undefined)
## Result 53.9% (inactive)

----------
# assay-notes: growth inhibition of DIPG glioma cells, dose response, cell-based, SU-DIPG-IV, MIPE4.0, CellTiter-Glo, qHTS (AID 1347063);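 further: compound exposure lasted 48 hours before the viability readout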
# experimental-setup: SU-DIPG-IV viability, CellTiter-Glo ATP luminescence
Results filed as inconclusive are left out. Activity calls are given as the source filed them. The limit is not given here; nearly all actives have AC50 up to about 30 µM.
Just give me one of these, please: 1 for active, -1 for inactive

Completed entries (count: 10):
## Task Just curious, what result did C[C@H]([C@H](O)CCC(C)(C)O)[C@H]1CC[C@@]2(O)C3=CC(=O)[C@@H]4C[C@@H](O)[C@@H](O)C[C@]4(C)[C@H]3CC[C@]12C get here?
## Result -1

## Task Please let me know the test result on file for CCC1(c2ccc(N)cc2)CCC(=O)NC1=O (stereo not drawn) .
## Result -1

## Task Recorded test call requested for O=C1CCC[C@@H]2[C@H]3CCCN4CCC[C@@H](CN12)[C@@H]34
## Result -1

## Task Hi, do you know how COc1ccc2c(c1OC)CN1CCc3cc4c(cc3C1C2)OCO4 (stereo not drawn) came out in this test?
## Result 1

## Task I would be grateful if you could indicate the recorded call for CC(C)(C)[C@]1(O)C[C@@H]2OC(=O)C[C@@]23C(=O)O[C@@H]2OC(=O)[C@H](O)C213 (stereo partly drawn) .
## Result -1

## Task Give the logged outcome of this assay for the following molecule: C[C@H]1[C@@H](CC(C[C@H]2O[C@@H]3O[C@]4(C)CC[C@H]5[C@H](C)CC[C@@H]([C@H]2C)[C@@]35OO4)CS(=O)(=O)c2ccc(COC(=O)N(C)C)cc2)O[C@@H]2O[C@]3(C)CC[C@H]4[C@H](C)CC[C@@H]1[C@@]24OO3 (stereo partly drawn)
## Result 1

## Task I'd appreciate the recorded outcome for COc1ccc(C(=O)N2CCCC2=O)cc1 from this test.
## Result -1

## Task How did this test come out for O=P1(N(CCCl)CCCl)NCCCO1 (stereo not drawn) ?
## Result -1

## Task What did the test return for C[C@]12CC[C@H](O)CC1=CC[C@@H]1[C@@H]2CC[C@]2(C)C(=O)CC[C@@H]12 ?
## Result -1

## Task For this molecule, state the assay outcome: CSCC[C@@H](NC(=O)[C@@H](Cc1ccccc1)NC(=O)CNC(=O)CNC(=O)[C@@H](N)Cc1ccc(O)cc1)C(=O)O
## Result -1

More entries:
## Task Could you please tell me the result logged for CN1[C@@H]2CC(O)C[C@H]1[C@@H]1O[C@@H]12 (stereo partly drawn) in this assay?
## Result 1

## Task I'd appreciate the recorded outcome for CCCN1CCO[C@@H]2c3cc(O)ccc3OC[C@H]21 from this test.
## Result -1

## Task Test call, this molecule: C=CCO/N=C(/C[C@H]1O[C@@H]2O[C@]3(C)CC[C@H]4[C@H](C)CC[C@@H]([C@H]1C)[C@@]24OO3)[C@H]1O[C@@H]2O[C@]3(C)CC[C@H]4[C@H](C)CC[C@@H]([C@H]1C)[C@@]24OO3
## Result 1

## Task // param item: CC(C)c1cccc(C(C)C)c1O ; yields the recorded call
## Result -1

## Task Query: recorded result category for C/C(=C\c1csc(C)n1)[C@@H]1C[C@@H]2O[C@]2(C)CCC[C@H](C)[C@H](O)[C@@H](C)C(=O)C(C)(C)[C@@H](O)CC(=O)O1 in this test
## Result -1

## Task Answer briefly: the call reported for O=C(O)CCCc1ccc(N(CCCl)CCCl)cc1 in this assay.
## Result -1

----------
# assay-notes: antimalarial activity against Dd2 strain (AID 2302);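 further: 0% = DMSO untreated growth and 100% = chloroquine plus artemisinin killed control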
# experimental-setup: P. falciparum Dd2 in RBCs, LDH growth readout, 72 h; at 2 µM; stronger effect = higher value
endpoint: growth inhibition (%)
Reply with just the number (in %).

Some entries whose results are on file:
## Task Reported growth inhibition, compound CCCCCc1cc(O)c2c(c1)OC(C)(C)CC2C1=CCN(Cc2cnc3ccccc3c2)CC1 (centres undefined) : ____
## Result 98

## Task Entry under review: CC[C@H]1C[N+]2([O-])CC[C@@H]1C[C@H]2[C@H](O)c1cc(-c2ccccc2)nc2ccc(OC)cc12 . Reported growth inhibition?
## Result 97

## Task Record request: growth inhibition value, item CN(c1cc(NC(=O)c2cccs2)ccn1)C1CCN(Cc2ccccc2)CC1
## Result 87

## Task Given CN1CCC(COC(=O)C(O)(c2ccccc2)c2ccccc2)C1 (centres undefined) , state its recorded growth inhibition.
## Result 4

## Task Could you tell me which growth inhibition is on file for COc1cccc(CN2CCC(CCOC(c3ccccc3)c3ccc(Cl)cc3)CC2)c1O (centres undefined) ?
## Result 100

---
## Task Reported growth inhibition for O=C(/C=C/c1ccc(Cl)c(Cl)c1)N1CCC(CN2CCC(c3c[nH]c4ccc(O)cc34)CC2)CC1 : what is it?
## Result 100

## Task # query: growth inhibition of entry COc1ccc(C(=O)[C@H]2C[C@@H]2CN2CC=C(c3c(C)[nH]c4ccccc34)CC2)cc1
## Result 94

## Task Name the reported growth inhibition value associated with the compound C=C[C@@H]1CN2CC[C@H]1C[C@H]2[C@H](O)c1cc(-c2ccc(Cl)cc2)nc2ccc(OC)cc12
## Result 98

## Task Give the measured growth inhibition of S=C(NCC1CCCCC1)NC1CCC(CN2CCC(c3c[nH]c4ccccc34)CC2)CC1 (centres undefined) .
## Result 10
